Assay: Area under the curve for fumarate salt was evaluated in F344 Rats.
Type: ADME, organism-based
Settings: F344, rat, in vivo
Parameter: AUC. Scope: all listed entries.
measuredMetric: AUC (ng·h/mL)

>>> print(df.to_string())
                                   compound  datavalue
0  COc1ccc2nc(COc3ccc(CC4SC(=O)NC4=O)cc3)n(C)c2n1.O=C(O)/C=C/C(=O)O (stereo not drawn)      36400
1  COc1ccc2nc(COc3ccc(CC4SC(=O)NC4=O)cc3)n(C)c2n1.Cl (stereo not drawn)     141000
2  COc1ccc2nc(COc3ccc(CC4SC(=O)NC4=O)cc3)n(C)c2n1 (stereo not drawn)      11900

---

Parameter: EC. Scope: all listed entries.
System: 3T3-L1
Experiment: Stimulation of adipogenesis in 3T3-L1 cells is expressed as concentration equivalent to the [ 1-14C] uptake counts after treatment with 0.2 ug/mL troglitazone
Type: functional, Mus musculus
measuredMetric: EC

                                    compound  datavalue
 0  O=C1NC(=O)C(Cc2ccc(OCc3nc4ccc[nH]c-4n3)cc2)S1 (stereo not given)    8.18 µM
 1  O=C1NC(=O)C(Cc2ccc(OCc3nc4cccnc4n3Cc3ccc(Cl)cc3)cc2)S1 (stereo not given)    0.71 µM
 2  Cn1c(COc2ccc(CC3SC(=O)NC3=O)cc2)nc2cccnc21 (stereo not given)    0.13 µM
 3  Cn1c(COc2ccc(CC3SC(=O)NC3=O)cc2)nc2ccc(O)nc21 (stereo not given)    1.98 µM
 4  Cn1c(Oc2ccc(CC3SC(=O)NC3=O)cc2)nc2cccnc21 (stereo not given)    1.35 µM
 5  Cn1c(COc2ccc(CC3SC(=O)NC3=O)cc2)nc2ccc(Cl)nc21 (stereo not given)  0.0009 µM
 6  Cn1c(CCOc2ccc(CC3SC(=O)NC3=O)cc2)nc2cccnc21 (stereo not given)    0.65 µM
 7  CN(CCOc1ccc(CC2SC(=O)NC2=O)cc1)c1ccccn1 (stereo not given)    0.09 µM
 8  O=C1NC(=O)C(Cc2ccc(OCc3cn4ccccc4n3)cc2)S1 (stereo not given)    5.09 µM
 9  Cc1ccnc2c1nc(COc1ccc(CC3SC(=O)NC3=O)cc1)n2C (stereo not given)    0.37 µM
10  Cn1c(COc2ccc(CC3SC(=O)NC3=O)cc2)nc2ccc(Sc3ccccc3)nc21 (stereo not given)   0.067 µM
11  Cn1c(COc2ccc(CC3SC(=O)NC3=O)cc2)nc2cc(Br)cnc21 (stereo not given)    0.34 µM
12  CC(C)Oc1ccc2nc(COc3ccc(CC4SC(=O)NC4=O)cc3)n(C)c2n1 (stereo not given)   0.075 µM
13  CCOc1ccc2nc(COc3ccc(CC4SC(=O)NC4=O)cc3)n(C)c2n1 (stereo not given)   0.078 µM
14  Cn1c(CCCOc2ccc(CC3SC(=O)NC3=O)cc2)nc2cccnc21 (stereo not given)   0.081 µM
15  O=C1NC(=O)C(Cc2ccc(OCc3nc4cccnc4n3Cc3ccc(-c4ccccc4)cc3)cc2)S1 (stereo not given)    0.92 µM
16  Cn1c(COc2ccc(CC3SC(=O)NC3=O)cc2)nc2ccc(-c3ccccc3)nc21 (stereo not given)    0.36 µM
17  COc1ccc2nc(COc3ccc(CC4SC(=O)NC4=O)cc3)n(C)c2n1 (stereo not given)    0.08 µM
18  Cn1c(COc2ccc(CC3SC(=O)NC3=O)cc2)nc2cc(C(F)(F)F)cnc21 (stereo not given)   0.073 µM
19  Cc1cc(C)c2nc(COc3ccc(CC4SC(=O)NC4=O)cc3)n(C)c2n1 (stereo not given)    0.22 µM
20  O=C1NC(=O)C(Cc2ccc(OCc3nc4cccnc4n3-c3ccccc3)cc2)S1 (stereo not given)    2.56 µM
21  Cn1c(COc2ccc(CC3SC(=O)NC3=O)cc2)nc2ccc(OCc3ccccc3)nc21 (stereo not given)   0.067 µM
22  CCn1c(COc2ccc(CC3SC(=O)NC3=O)cc2)nc2cccnc21 (stereo not given)    1.07 µM
23  COc1ccc2nc(COc3ccc(CC4SC(=O)NC4=O)cc3)n(C)c2n1.Cl (stereo not given)    0.11 µM
24  Cn1c(COc2ccc(CC3SC(=O)NC3=O)cc2)nc2cc(Cl)cnc21 (stereo not given)    0.16 µM
